biological target: B-Raf (V600E) (Homo sapiens (Human), UniProt P15056, V600E); assay: Raf IC50 assay, TR-FRET, B-Raf (V600E); type: biochemical; details: 0.1 mM ATP; read-out: IC50 BRAF-V600E
Sequence (P15056 whole entry V600E): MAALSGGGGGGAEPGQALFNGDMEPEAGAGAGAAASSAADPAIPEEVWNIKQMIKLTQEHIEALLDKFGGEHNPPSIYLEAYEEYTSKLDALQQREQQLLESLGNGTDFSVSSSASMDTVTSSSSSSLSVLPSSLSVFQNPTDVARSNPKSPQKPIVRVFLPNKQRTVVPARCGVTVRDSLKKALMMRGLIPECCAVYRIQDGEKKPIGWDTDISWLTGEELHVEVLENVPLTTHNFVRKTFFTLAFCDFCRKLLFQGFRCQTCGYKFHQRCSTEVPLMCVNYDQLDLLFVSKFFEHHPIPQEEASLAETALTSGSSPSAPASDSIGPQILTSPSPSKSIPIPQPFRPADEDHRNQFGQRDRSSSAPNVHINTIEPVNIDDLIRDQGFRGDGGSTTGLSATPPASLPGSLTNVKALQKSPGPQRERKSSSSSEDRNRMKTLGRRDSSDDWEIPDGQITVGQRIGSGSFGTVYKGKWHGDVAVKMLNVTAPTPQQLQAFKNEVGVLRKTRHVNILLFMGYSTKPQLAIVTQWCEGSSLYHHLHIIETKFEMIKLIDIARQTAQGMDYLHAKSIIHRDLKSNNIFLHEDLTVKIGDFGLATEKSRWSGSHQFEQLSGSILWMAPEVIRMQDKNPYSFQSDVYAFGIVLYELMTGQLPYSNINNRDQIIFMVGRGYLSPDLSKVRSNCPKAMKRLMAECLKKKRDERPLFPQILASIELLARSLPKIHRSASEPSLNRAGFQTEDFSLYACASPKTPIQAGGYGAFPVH
endpoint-name: IC50 (nM)

Some compounds with known IC50 results, for comparison:
| compound | observed-value |
| --- | --- |
| Cc1cc(Oc2ccnc3c2CCC(=O)N3)cc2c1OC1C(NC(=O)c3ccc(CN4CCN(C)CC4)c(C(F)(F)F)c3)C21 (stereo not drawn) [Compound 1.56] | 21 |
| O=C1CCc2c(Oc3ccc4c(c3)[C@H]3[C@H](NC(=O)c5ccc(F)cc5)[C@H]3O4)ccnc2N1 [Compound 1.36] | 1.4 |

P. O=C1CCc2c(Oc3ccc4c(c3)[C@H]3[C@H](NC(=O)c5cncc(C(F)(F)F)c5)[C@H]3O4)ccnc2N1 [Compound 1.62]
Q. CN(C)[C@@H]1CCCN(c2ccc(C(=O)N[C@@H]3[C@H]4Oc5ccc(Oc6ccnc7c6CCC(=O)N7)cc5[C@@H]34)cc2C(F)(F)F)C1 [Compound 1.48]
R. CCN1CCN(Cc2ccc(C(=O)N[C@@H]3[C@H]4Oc5ccc(Oc6ccnc(C(=O)NC)c6)cc5[C@@H]34)cc2C(F)(F)F)CC1 [Compound 2.3]
S. CN1CCN(Cc2ccc(C(=O)N[C@@H]3[C@H]4Oc5ccc(Oc6ccnc7c6CCC(=O)N7)cc5[C@@H]34)cc2F)CC1 [Compound 1.21]
Q: Put the entries in order of IC50, starting with the largest number. Provide the labels, sequenced as the question asks.
Result: R, Q, S, P

---

biological target: EGFR L858R kinase domain (Homo sapiens (Human), UniProt P00533, L858R); assay: EGFR enzymatic assay, TR-FRET, EGFR L858R
Sequence (P00533 669-1210 L858R): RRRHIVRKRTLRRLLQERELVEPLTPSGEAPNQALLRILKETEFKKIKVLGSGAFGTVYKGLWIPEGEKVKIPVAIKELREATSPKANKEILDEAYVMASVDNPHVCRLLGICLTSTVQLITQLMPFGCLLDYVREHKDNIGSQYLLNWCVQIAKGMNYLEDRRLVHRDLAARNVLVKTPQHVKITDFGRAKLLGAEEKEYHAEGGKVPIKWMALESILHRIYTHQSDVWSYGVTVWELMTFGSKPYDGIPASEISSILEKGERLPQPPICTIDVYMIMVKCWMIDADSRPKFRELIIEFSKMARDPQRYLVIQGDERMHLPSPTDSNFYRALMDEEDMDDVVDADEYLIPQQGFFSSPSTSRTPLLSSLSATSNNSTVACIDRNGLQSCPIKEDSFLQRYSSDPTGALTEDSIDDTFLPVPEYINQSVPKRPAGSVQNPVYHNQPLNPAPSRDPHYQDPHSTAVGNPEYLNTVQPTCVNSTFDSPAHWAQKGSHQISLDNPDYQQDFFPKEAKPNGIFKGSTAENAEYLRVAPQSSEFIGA
pIC50: −log10 of the molar value.
endpoint-name: pIC50

P. C[C@@H]1CN(Cc2ccc(C(=O)N[C@@H]3[C@H]4Oc5ccc(Oc6ccnc7c6CCC(=O)N7)cc5[C@@H]34)cc2C(F)(F)F)C[C@H](C)O1 [Compound 1.13]
Q. O=C1CCc2c(Oc3ccc4c(c3)[C@H]3[C@H](NC(=O)c5ccc(CN6CCNCC6)c(C(F)(F)F)c5)[C@H]3O4)ccnc2N1 [Compound 1.27]
R. O=C1CCc2c(Oc3ccc4c(c3)[C@H]3[C@H](NC(=O)c5ccc(CO)c(C(F)(F)F)c5)[C@H]3O4)ccnc2N1 [Compound 1.76]
Q: Parameters: sort_field (pIC50), sort_dir (desc). Provide the labels, sequenced as the question asks.
Result: Q, P, R
(Q: 9.51, P: 7.96, R: 7.74)

---

Target: B-Raf (V600E) (Homo sapiens (Human), UniProt P15056, V600E)
Experiment: Raf IC50 assay, TR-FRET, B-Raf (V600E)
Conditions: 0.1 mM ATP; read-out: IC50 BRAF-V600E
Protocol: The enzyme was incubated with the compounds disclosed herein at room temperature for 60 minutes and the reactions were initiated by the addition of ATP and GST-MEK1. After reaction at room temperature for 60 minutes, an equal volume of stop/detection solution was added according to the manufacture's instruction (CisBio Bioassays). […] The IC50 for each compound was derived from fitting the dose-response % inhibition data to the four-parameter logistic model by Graphpad Prism software.
endpoint-name: IC50 (nM)

1. O=C(/C=C/c1cccc(C(F)(F)F)c1)N[C@@H]1[C@H]2Oc3ccc(Oc4ccnc5c4CCC(=O)N5)cc3[C@@H]12
2. O=C1CCc2c(Oc3ccc4c(c3)[C@H]3[C@H](NC(=O)c5ccc(CN6CCN(CC(F)(F)F)CC6)c(C(F)(F)F)c5)[C@H]3O4)ccnc2N1
3. O=C1CCc2c(Oc3ccc4c(c3)[C@H]3[C@H](NC(=O)c5ccccc5F)[C@H]3O4)ccnc2N1
Q: Rank the compounds listed above in increasing order of IC50. Provide the labels, sequenced as the question asks.
Result: 3, 1, 2

1. N#CC1(c2cccc(C(=O)N[C@@H]3[C@H]4Oc5ccc(Oc6ccnc7c6CCC(=O)N7)cc5[C@@H]34)c2)CC1
2. CCN1CCN(Cc2ccc(C(=O)N[C@@H]3[C@H]4Oc5ccc(Oc6ccnc7c6CCC(=O)N7)cc5[C@@H]34)cc2C)CC1
3. CN(C)Cc1ccc(C(=O)N[C@@H]2[C@H]3Oc4ccc(Oc5ccnc6c5CCC(=O)N6)cc4[C@@H]23)cc1C(F)(F)F
Q: Put the entries in order of IC50, starting with the largest number. Provide the labels, sequenced as the question asks.
Result: 3, 2, 1

---

biological target: EGFR L858R kinase domain (Homo sapiens (Human), UniProt P00533, L858R); assay: EGFR enzymatic assay, TR-FRET, EGFR L858R
endpoint-name: IC50 (nM)

a. O=C1CCc2c(Oc3ccc4c(c3)[C@H]3[C@H](NC(=O)c5ccc(CN6CCCCC6)c(C(F)(F)F)c5)[C@H]3O4)ccnc2N1
b. O=C1CCc2c(Oc3ccc4c(c3)[C@H]3[C@H](NC(=O)c5cccc(C(F)(F)F)n5)[C@H]3O4)ccnc2N1
c. CN1CCN(Cc2ccc(C(=O)N[C@@H]3[C@H]4Oc5ccc(Oc6ccnc7c6CNC(=O)N7)cc5[C@@H]34)cc2C(F)(F)F)CC1
d. Cc1cccc(F)c1C(=O)N[C@@H]1[C@H]2Oc3ccc(Oc4ccnc5c4CCC(=O)N5)cc3[C@@H]12
e. CN(C)[C@H]1CCCN(c2ccc(C(=O)N[C@@H]3[C@H]4Oc5ccc(Oc6ccnc7c6CCC(=O)N7)cc5[C@@H]34)cc2C(F)(F)F)C1
Q: Parameters: sort_field (IC50), sort_dir (desc). Provide the labels, sequenced as the question asks.
Result: d, b, a, e, c
(d: 529 nM, b: 296 nM, a: 100 nM, e: 0.39 nM, c: 0.15 nM)

---

target: EGFR T790M/L858R kinase domain (Homo sapiens (Human), UniProt P00533, L858R/T790M); assay: EGFR enzymatic assay, TR-FRET, EGFR T790M/L858R; format: biochemical
Sequence (P00533 669-1210 T790M/L858R): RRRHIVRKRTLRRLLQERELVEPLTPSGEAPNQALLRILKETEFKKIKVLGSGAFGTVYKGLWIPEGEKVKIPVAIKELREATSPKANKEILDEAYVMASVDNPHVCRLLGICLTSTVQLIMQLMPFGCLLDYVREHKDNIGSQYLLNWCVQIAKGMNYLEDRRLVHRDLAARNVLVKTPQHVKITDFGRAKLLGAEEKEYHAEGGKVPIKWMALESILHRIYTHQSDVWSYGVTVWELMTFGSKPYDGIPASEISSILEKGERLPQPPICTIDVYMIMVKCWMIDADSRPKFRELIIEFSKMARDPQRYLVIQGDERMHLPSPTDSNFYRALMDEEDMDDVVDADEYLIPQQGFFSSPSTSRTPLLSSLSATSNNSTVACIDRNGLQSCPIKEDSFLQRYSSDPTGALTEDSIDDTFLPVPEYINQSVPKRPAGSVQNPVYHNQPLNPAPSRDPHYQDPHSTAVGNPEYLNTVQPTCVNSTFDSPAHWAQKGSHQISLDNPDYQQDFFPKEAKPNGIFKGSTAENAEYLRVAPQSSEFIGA
pIC50: −log10 of the molar value.
endpoint-name: pIC50

Some compounds with known pIC50 results, for comparison:
| substance-smiles | pIC50 |
| --- | --- |
| CN(C)Cc1ccc(C(=O)N[C@@H]2[C@H]3Oc4ccc(Oc5ccnc6c5CCC(=O)N6)cc4[C@@H]23)cc1C(F)(F)F | 8.09 |
| CN1CCN(Cc2ccc(C(=O)N[C@@H]3[C@H]4Oc5ccc(Oc6ccnc7c6CCC(=O)N7)cc5[C@@H]34)cc2F)CC1 | 8.52 |
| CN1CCN(Cc2ccc(C(=O)N[C@@H]3[C@H]4Oc5ccc(Oc6ccnc7c6CCC(=O)N7)cc5[C@@H]34)cc2Cl)CC1 | 9.33 |
| N#CC1(c2cccc(C(=O)N[C@@H]3[C@H]4Oc5ccc(Oc6ccnc7c6CCC(=O)N7)cc5[C@@H]34)c2)CC1 | 6.50 |

P. CCN1CCN(Cc2ccc(C(=O)N[C@@H]3[C@H]4Oc5ccc(Oc6ccnc(C(=O)NC)c6)cc5[C@@H]34)cc2C(F)(F)F)CC1
Q. CCN1CCN(Cc2cc(C(=O)N[C@@H]3[C@H]4Oc5ccc(Oc6ccnc7c6CCC(=O)N7)cc5[C@@H]34)cc(C(F)(F)F)c2)CC1
R. CCN1CCC(Oc2ccc(C(=O)N[C@@H]3[C@H]4Oc5ccc(Oc6ccnc7c6CCC(=O)N7)cc5[C@@H]34)cc2C(F)(F)F)CC1
S. CCN1CCN(Cc2ccc(C(=O)N[C@@H]3[C@H]4Oc5ccc(Oc6ccnc7c6COC(=O)N7)cc5[C@@H]34)cc2C(F)(F)F)CC1
Q: Sort (4 compounds) by pIC50: min first. Provide the labels, sequenced as the question asks.
Result: P, Q, R, S
(P: 7.66, Q: 8.15, R: 9.34, S: 9.60)

1. O=C1CCc2c(Oc3ccc4c(c3)[C@H]3[C@H](NC(=O)c5ccccc5F)[C@H]3O4)ccnc2N1
2. CC(C)(N)c1cc(C(=O)N[C@@H]2[C@H]3Oc4ccc(Oc5ccnc6c5CCC(=O)N6)cc4[C@@H]23)cc(C(F)(F)F)c1
3. CN(C)C1CCN(c2ccc(C(=O)N[C@@H]3[C@H]4Oc5ccc(Oc6ccnc7c6CCC(=O)N7)cc5[C@@H]34)cc2C(F)(F)F)CC1
4. O=C1CCc2c(Oc3ccc4c(c3)[C@H]3[C@H](NC(=O)c5ccnc(C(F)(F)F)c5)[C@H]3O4)ccnc2N1
Q: Put the entries in order of pIC50, starting with the largest number. Provide the labels, sequenced as the question asks.
Result: 2, 3, 4, 1
(2: 8.92, 3: 7.68, 4: 6.63, 1: 5.50)

---

molecular target: EGFR T790M/L858R kinase domain (Homo sapiens (Human), UniProt P00533, L858R/T790M); assay: EGFR enzymatic assay, TR-FRET, EGFR T790M/L858R
endpoint-name: IC50 (nM)

Some compounds with known IC50 results, for comparison:
| substance-smiles | IC50 / nM |
| --- | --- |
| O=C1CCc2c(Oc3ccc4c(c3)[C@H]3[C@H](NC(=O)c5cccc(F)c5)[C@H]3O4)ccnc2N1 | 692 |
| CN(C)Cc1cc(C(=O)N[C@@H]2[C@H]3Oc4ccc(Oc5ccnc6c5CCC(=O)N6)cc4[C@@H]23)cc(C(F)(F)F)c1 | 81 |
| O=C1CCc2c(Oc3ccc4c(c3)[C@H]3[C@H](NC(=O)c5cccc(C(F)(F)F)c5)[C@H]3O4)ccnc2N1 | 47 |
| CCN1CCN(Cc2ccc(C(=O)N[C@@H]3[C@H]4Oc5ccc(Oc6ccnc(N)c6)cc5[C@@H]34)cc2C(F)(F)F)CC1 | 0.82 |
| CN(C)[C@H]1CCCN(Cc2ccc(C(=O)N[C@@H]3[C@H]4Oc5ccc(Oc6ccnc7c6CCC(=O)N7)cc5[C@@H]34)cc2C(F)(F)F)C1 | 1.3 |

P. COc1cc(C(=O)N[C@@H]2[C@H]3Oc4ccc(Oc5ccnc6c5CCC(=O)N6)cc4[C@@H]23)ccc1CN1CCN(C)CC1
Q. O=C1CCc2c(Oc3ccc4c(c3)[C@H]3[C@H](NC(=O)c5ccc(CN6CCN7CCC[C@@H]7C6)c(C(F)(F)F)c5)[C@H]3O4)ccnc2N1
R. CN1CCN(Cc2ccc(C(=O)N[C@H]3[C@@H]4Oc5ccc(Oc6ccnc7c6CCC(=O)N7)cc5[C@H]34)cc2C(F)(F)F)CC1
Q: Sort (3 compounds) by IC50: min first. Provide the labels, sequenced as the question asks.
Result: Q, P, R

A. CCN1CCN(Cc2ccc(C(=O)N[C@@H]3[C@H]4Oc5ccc(Oc6ccnc7c6CCC(=O)N7)cc5[C@@H]34)cc2OC)CC1
B. O=C(/C=C/c1cccc(C(F)(F)F)c1)N[C@@H]1[C@H]2Oc3ccc(Oc4ccnc5c4CCC(=O)N5)cc3[C@@H]12
Q: Of the two listed items, which has the higher IC50? First: A Second: B Answer by stating the label of the chosen item.
Result: B

A. O=C1CCc2c(Oc3ccc4c(c3)[C@H]3[C@H](NC(=O)c5ccc(CN6CCN(CC(F)(F)F)CC6)c(C(F)(F)F)c5)[C@H]3O4)ccnc2N1
B. CN1CCN(Cc2ccc(C(=O)N[C@@H]3[C@H]4Oc5ccc(Oc6ccnc7c6CNC(=O)N7)cc5[C@@H]34)cc2C(F)(F)F)CC1
Q: Of the two listed items, which has the higher IC50? First: A Second: B Answer by stating the label of the chosen item.
Result: A
(A: 813 nM, B: 0.084 nM)
